molecular target: human Werner helicase (WRN-BV08, Uniprot Q14191, amino acids 517-1235 with L1074F point mutation) (Homo sapiens, UniProt Q14191, L1074F); construct: Uniprot Q14191, amino acids 517-1235 with L1074F point mutation; TEV-cleavable 8×His (C, cleaved yes); made in house; host or cells: Sf9 insect cells (baculovirus); experiment: WRN (BV08) ADP-Glo Assay; assay type: biochemical; conditions: 0.15 nM WRN, 5 μM ATP, 0.1 nM DNA duplex, 15 min preincubation, 60 min at 25° C., pH 7.5, 1% DMSO; read-out: ADP-Glo_hWRN_IC50
Sequence (Q14191 with tags, fused parts or gaps L1074F limits assumed): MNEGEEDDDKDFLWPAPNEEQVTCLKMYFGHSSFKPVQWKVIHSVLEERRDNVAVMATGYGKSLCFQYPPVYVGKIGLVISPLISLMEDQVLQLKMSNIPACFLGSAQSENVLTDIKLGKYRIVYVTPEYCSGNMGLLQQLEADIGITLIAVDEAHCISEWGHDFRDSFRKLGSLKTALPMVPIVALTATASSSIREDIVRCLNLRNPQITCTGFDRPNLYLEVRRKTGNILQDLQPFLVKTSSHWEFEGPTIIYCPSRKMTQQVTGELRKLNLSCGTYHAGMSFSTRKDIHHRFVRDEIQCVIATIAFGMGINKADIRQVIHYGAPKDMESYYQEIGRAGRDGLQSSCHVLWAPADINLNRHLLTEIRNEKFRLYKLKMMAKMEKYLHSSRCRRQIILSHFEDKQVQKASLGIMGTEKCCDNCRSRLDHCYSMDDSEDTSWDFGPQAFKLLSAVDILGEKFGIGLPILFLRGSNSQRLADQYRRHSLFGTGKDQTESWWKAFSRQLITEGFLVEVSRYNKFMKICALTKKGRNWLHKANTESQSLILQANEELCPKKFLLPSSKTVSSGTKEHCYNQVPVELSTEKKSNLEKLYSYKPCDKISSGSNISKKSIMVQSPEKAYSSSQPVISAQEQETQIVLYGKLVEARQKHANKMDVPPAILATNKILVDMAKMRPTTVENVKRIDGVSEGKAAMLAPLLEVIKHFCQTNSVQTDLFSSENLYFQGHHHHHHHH
In this section, each of the compounds is paired with its reported IC50.

- compound: "O=C(Cn1cc(-c2ccc(F)cc2)cn1)N(Cc1nc(C2CC2)cs1)C1C=CS(=O)(=O)C1 (single isomer, unassigned) [I-601]"
  result: "0.5 to 5 µM"

// field: IC50; key: COc1cc(CN(C(=O)Cc2ccc(-c3cscn3)cc2F)C2C=CS(=O)(=O)C2)ccn1 (stereo not shown) [I-363] ; value = 10 to 50 µM

// field: IC50; key: COc1cc(CN(C(=O)Cc2ccc(-c3ccc(F)cc3O)nc2)C2C=CS(=O)(=O)C2)ccn1 (single isomer, unassigned) [I-130] ; value = 0.5 to 5 µM

// field: IC50; key: O=C(Cc1ccc(S(F)(F)(F)(F)F)cc1)N(Cc1cnoc1)C1C=CS(=O)(=O)C1 (stereo not shown) [I-648] ; value = 5 to 10 µM

// field: IC50; key: CC(C(=O)N(Cc1ccncc1)C1C=CS(=O)(=O)C1)c1ccc(-n2cccc2)cc1 (stereo not shown) [I-265] ; value = 5 to 10 µM

// field: IC50; key: O=C(Cc1ccc(C(F)(F)F)c(Cl)c1)N(Cc1ccncc1)C1C=CS(=O)(=O)C1 (stereo not shown) [I-299] ; value = 10 to 50 µM

// field: IC50; key: CN(C)C(=O)c1ccc(CN(C(=O)Cc2ccc(-n3cccc3)cc2)C2C=CS(=O)(=O)C2)cc1 (stereo not shown) [I-259] ; value = 5 to 10 µM

====

target: human Werner helicase (WRN-BV08, Uniprot Q14191, amino acids 517-1235 with L1074F point mutation) (Homo sapiens, UniProt Q14191, L1074F); construct: Uniprot Q14191, amino acids 517-1235 with L1074F point mutation; TEV-cleavable 8×His (C, cleaved yes); made in house; host or cells: Sf9 insect cells (baculovirus); assay: WRN (BV08) ADP-Glo Assay; assay type: biochemical; conditions: 0.15 nM WRN, 5 μM ATP, 0.1 nM DNA duplex, 15 min preincubation, 60 min at 25° C., pH 7.5, 1% DMSO; read-out: ADP-Glo_hWRN_IC50
In this section, each of the compounds is paired with its reported IC50.

- compound: "O=C(Cc1ccc(-c2ccc(F)cc2)cc1C(F)(F)F)N(Cc1ccncc1)C1C=CS(=O)(=O)C1 (stereo not shown)"
  IC50: "> 50 µM"
- compound: "COc1cc(C(C)N(C(=O)Cn2cc(-c3cc(F)c(F)c(F)c3)cn2)C2C=CS(=O)(=O)C2)ccn1 (single isomer, unassigned) [I-830]"
  IC50: "5 to 10 µM"
- compound: "CC(C)(O)c1cc(CN(C(=O)Cn2cc(-c3cc(F)c(F)cc3F)cn2)C2C=CS(=O)(=O)C2)ccn1 (single isomer, unassigned)"
  IC50: "< 0.5 µM"

// field: IC50; key: COC(C(=O)N(Cc1ccnc(C(C)(C)O)c1)[C@@H]1C=CS(=O)(=O)C1)c1ccc(-c2ccc(F)c(F)c2)cc1F (single isomer, unassigned) ; value = < 0.5 µM

// field: IC50; key: O=C(C1Cc2cc(-n3cccc3)ccc21)N(Cc1ccncc1)C1C=CS(=O)(=O)C1 (stereo not shown) ; value = 5 to 10 µM

Data provenance: patent US20260297070A1
